Measured IC50 accompanies every entry in the list below.
Tested on: HCV GT-1b Con1 subgenomic replicon
Experiment notes: HCV GT1b replicon luciferase reporter assay (2209-23 cells)
Assay type: cell-based
Condition info: Hepatitis C virus, 2209-23 cell line (Huh-7 with GT-1b Con1 subgenomic replicon), Renilla luciferase read 72 hours after compound addition
Description: Determination of compounds HCV GT1b inhibitory replicon activity using the replicon luciferase reporter assay […] 2209-23 cells were plated at a cell density of 5000 cells per well in 96 well plates (Becton Dickinson, Cat #35 3296). […] Renilla luciferase reporter signal was read 72 hours after addition of compounds using the Renilla Luciferase Assay System (Promega, cat #E2820). […]
Experimental endpoint: IC50 (nM)

Smiles record: COC(=O)N[C@H](C(=O)N1CCC[C@H]1c1ncc(-c2ccc(-c3ccc(NC(=O)NC(=O)[C@@H]4CCCN4C(=O)[C@H](NC(=O)OC)c4ccccc4)cn3)cc2)[nH]1)C(C)C
Output unit: nM
Value reported: 0.041

Smiles record: COC(=O)N[C@H](C(=O)N1CCC[C@H]1C(=O)NC(=O)Nc1ccc(-c2ccc(-c3cnc([C@@H]4CCCN4C(=O)[C@@H](NC(=O)OC)C(C)C)[nH]3)cc2)cc1)C(C)C
Output unit: nM
Value reported: 0.463

Smiles record: COC(=O)N[C@H](C(=O)N1CCC[C@H]1C(=O)NC(=O)Nc1ccc2nc(-c3ccc(-c4cnc([C@@H]5CCCN5C(=O)[C@@H](NC(=O)OC)C(C)C)[nH]4)cc3)sc2c1)C(C)C
Output unit: nM
Value reported: 0.344

Data origin: patent US20120328565A1
